- Species: Rattus norvegicus
- ASSAY SUMMARY: Open TG-GATES - Regimen: Single
- Format: toxicity, organism-based, Sprague-Dawley
- Design: regimen Single, gender Male, age 6 weeks
- MEASUREMENT CONDITIONS: in vivo, po, 0 mg/kg, 24 h, tissue Plasma, route gavage, dose level Control
QUANTITY: DBIL (mg/dL)
Answers are plain numbers, in mg/dL.

Use these answered entries as a reference point.
C[C@H]1O[C@H](O[C@H]2[C@H](O)[C@@H](O)[C@@H](O[C@H]3[C@H](O)[C@@H](O)C(O)O[C@@H]3CO)O[C@@H]2CO)[C@H](O)[C@@H](O)[C@@H]1N[C@H]1C=C(CO)[C@@H](O)[C@H](O)[C@H]1O (some centres undefined) = 0.006
OCCN1CCN(CCCN2c3ccccc3Sc3ccc(C(F)(F)F)cc32)CC1 = 0.012
Cc1cccc(C)c1OCC(C)N (centres undefined) = 0

# batch: return DBIL for each of the 6 molecules below
1. CCOC(=O)C(C)(C)Oc1ccc(Cl)cc1 [CLOFIBRATE]
2. O=[N+]([O-])c1ccc(O)c([N+](=O)[O-])c1
3. Cn1cc[nH]c1=S
4. Cc1ccc2cc3c(ccc4ccccc43)c3c2c1CC3
5. C[C@H]1C(=O)O[C@@H]2CCN3CC=C(COC(=O)[C@](C)(O)[C@]1(C)O)[C@H]23
6. C=C(C)[C@H]1Cc2c(ccc3c2O[C@@H]2COc4cc(OC)c(OC)cc4[C@@H]2C3=O)O1

## Output
0.094
0.012
0
0
0.006
0.014

###

Consider the following compounds; for each one, report its GLC.
- Organism: Rattus norvegicus
- ASSAY SUMMARY: Open TG-GATES - Regimen: Single
- Format: toxicity, organism-based, Sprague-Dawley
- Design: regimen Single, gender Male, age 6 weeks
- MEASUREMENT CONDITIONS: in vivo, po, 0 mg/kg, 6 h, tissue Plasma, route gavage, dose level Control
One number for each entry, in mg/dL.

Use these answered entries as a reference point.
C=C(C)[C@H]1Cc2c(ccc3c2O[C@@H]2COc4cc(OC)c(OC)cc4[C@@H]2C3=O)O1 = 181.8
Cn1cc[nH]c1=S = 185
C[C@H]1O[C@H](O[C@H]2[C@H](O)[C@@H](O)[C@@H](O[C@H]3[C@H](O)[C@@H](O)C(O)O[C@@H]3CO)O[C@@H]2CO)[C@H](O)[C@@H](O)[C@@H]1N[C@H]1C=C(CO)[C@@H](O)[C@H](O)[C@H]1O (some centres undefined) = 166

Now look at this one.
## Input Tell me its GLC given OCCN1CCN(CCCN2c3ccccc3Sc3ccc(C(F)(F)F)cc32)CC1 as the entry.
## Output 180.8

###

- Species: Rattus norvegicus
- ASSAY SUMMARY: Open TG-GATES - Regimen: Single
- Type: toxicity, organism-based, Sprague-Dawley
- Set-up: regimen Single, gender Male, age 6 weeks
- MEASUREMENT CONDITIONS: in vivo, po, 0 mg/kg, 24 h, tissue Plasma, route gavage, dose level Control
Classification field: rule met = AST at or over 70 IU/L; rule not met = AST under 70 IU/L.

Check out these entries, answers already filled in.
CCOC(=O)C(C)(C)Oc1ccc(Cl)cc1 [CLOFIBRATE] = rule not met
Cc1cccc(C)c1OCC(C)N (centres undefined) = rule met
O=[N+]([O-])c1ccc(O)c([N+](=O)[O-])c1 = rule not met
C[C@H]1C(=O)O[C@@H]2CCN3CC=C(COC(=O)[C@](C)(O)[C@]1(C)O)[C@H]23 = rule met

Next up:
## Input Given C=C(C)[C@H]1Cc2c(ccc3c2O[C@@H]2COc4cc(OC)c(OC)cc4[C@@H]2C3=O)O1 , state whether its AST is at least 70 IU/L.
## Output rule met

###

- Organism: Rattus norvegicus
- ASSAY SUMMARY: Open TG-GATES - Regimen: Daily Repeat
- Format: toxicity, organism-based, Sprague-Dawley
- Design: regimen Daily Repeat, gender Male, age 6 weeks
- MEASUREMENT CONDITIONS: in vivo, po, 0 mg/kg, 72 h, tissue Blood, route gavage, dose level Control, time 3 day
Consider the following compounds; for each one, report its Plat.
One number for each entry, in x10_4/uL.

Cn1cc[nH]c1=S = 126.3

# batch: return Plat for each of the 3 compounds below
1. C[C@H]1C(=O)O[C@@H]2CCN3CC=C(COC(=O)[C@](C)(O)[C@]1(C)O)[C@H]23
2. Cc1cccc(C)c1OCC(C)N (stereo not given)
3. C=C(C)[C@H]1Cc2c(ccc3c2O[C@@H]2COc4cc(OC)c(OC)cc4[C@@H]2C3=O)O1

## Output
1. 119.6
2. 115
3. 118

## Input Tell me its Plat given CCOC(=O)C(C)(C)Oc1ccc(Cl)cc1 [CLOFIBRATE] as the entry.
## Output 124.2

###

- Species on record: Rattus norvegicus
- ASSAY SUMMARY: Open TG-GATES - Regimen: Daily Repeat
- Format: toxicity, organism-based, Sprague-Dawley
- Set-up: regimen Daily Repeat, gender Male, age 6 weeks
- MEASUREMENT CONDITIONS: in vivo, po, 0 mg/kg, 72 h, tissue Plasma, route gavage, dose level Control, time 3 day
Consider the following compounds; for each one, report its log10 TBIL.
Note: values are log10 of TBIL expressed in mg/dL.

C[C@H]1O[C@H](O[C@H]2[C@H](O)[C@@H](O)[C@@H](O[C@H]3[C@H](O)[C@@H](O)C(O)O[C@@H]3CO)O[C@@H]2CO)[C@H](O)[C@@H](O)[C@@H]1N[C@H]1C=C(CO)[C@@H](O)[C@H](O)[C@H]1O (some centres undefined) = -1.27
OCCN1CCN(CCCN2c3ccccc3Sc3ccc(C(F)(F)F)cc32)CC1 = -0.52
C=C(C)[C@H]1Cc2c(ccc3c2O[C@@H]2COc4cc(OC)c(OC)cc4[C@@H]2C3=O)O1 = -1.38
CCOC(=O)C(C)(C)Oc1ccc(Cl)cc1 [CLOFIBRATE] = -1.00

# batch: return log10 TBIL for each of the 5 compounds below
1. O=C1CN(/N=C/c2ccc([N+](=O)[O-])o2)C(=O)N1
2. C[C@H]1C(=O)O[C@@H]2CCN3CC=C(COC(=O)[C@](C)(O)[C@]1(C)O)[C@H]23
3. Cn1cc[nH]c1=S
4. Cc1cccc(C)c1OCC(C)N (centres undefined)
5. O=[N+]([O-])c1ccc(O)c([N+](=O)[O-])c1

## Output
[-0.70, -2.10, -1.85, -2.10, -1.47]

###

- Species on record: Rattus norvegicus
- ASSAY SUMMARY: Open TG-GATES - Regimen: Single
- Format: toxicity, organism-based, Sprague-Dawley
- Parameters: regimen Single, gender Male, age 6 weeks
- MEASUREMENT CONDITIONS: in vivo, po, 0 mg/kg, 9 h, tissue Blood, route gavage, dose level Control
QUANTITY: Ret (%)
Numbers only, in %.

# batch: return Ret for each of the 4 molecules below
1. C[C@H]1O[C@H](O[C@H]2[C@H](O)[C@@H](O)[C@@H](O[C@H]3[C@H](O)[C@@H](O)C(O)O[C@@H]3CO)O[C@@H]2CO)[C@H](O)[C@@H](O)[C@@H]1N[C@H]1C=C(CO)[C@@H](O)[C@H](O)[C@H]1O (stereo not given in full)
2. O=C1CN(/N=C/c2ccc([N+](=O)[O-])o2)C(=O)N1
3. C[C@H]1C(=O)O[C@@H]2CCN3CC=C(COC(=O)[C@](C)(O)[C@]1(C)O)[C@H]23
4. Cn1cc[nH]c1=S

## Output
8.4
7.1
8.7
7.7

## Input Tell me its Ret given C=C(C)[C@H]1Cc2c(ccc3c2O[C@@H]2COc4cc(OC)c(OC)cc4[C@@H]2C3=O)O1 as the entry.
## Output 9.2

###

- Organism: Rattus norvegicus
- ASSAY SUMMARY: Open TG-GATES - Regimen: Single
- Assay type: toxicity, organism-based, Sprague-Dawley
- Parameters: regimen Single, gender Male, age 6 weeks
- MEASUREMENT CONDITIONS: in vivo, po, 0 mg/kg, 3 h, tissue Plasma, route gavage, dose level Control
QUANTITY: LDH (IU/L)
Answers are plain numbers, in IU/L.

Use these answered entries as a reference point.
Cc1ccc2cc3c(ccc4ccccc43)c3c2c1CC3 [3-METHYLCHOLANTHRENE] = 179.6
OCCN1CCN(CCCN2c3ccccc3Sc3ccc(C(F)(F)F)cc32)CC1 [FLUPHENAZINE] = 86.2
Cn1cc[nH]c1=S [METHIMAZOLE] = 186.8

Now look at this one.
## Input Tell me its LDH given C[C@H]1O[C@H](O[C@H]2[C@H](O)[C@@H](O)[C@@H](O[C@H]3[C@H](O)[C@@H](O)C(O)O[C@@H]3CO)O[C@@H]2CO)[C@H](O)[C@@H](O)[C@@H]1N[C@H]1C=C(CO)[C@@H](O)[C@H](O)[C@H]1O (some centres undefined) [ACARBOSE] as the entry.
## Output 58.2
